# System Tested: 3-hydroxy-3-methylglutaryl-coenzyme A reductase (Homo sapiens);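 also: enzyme inhibition assay of HMG-CoA reductase using radiolabeled [14C]HMG-CoA as substrate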; also: in other assays of this panel Not Active means under 50% inhibition at 10 µM
# Sequence (P04035 whole entry): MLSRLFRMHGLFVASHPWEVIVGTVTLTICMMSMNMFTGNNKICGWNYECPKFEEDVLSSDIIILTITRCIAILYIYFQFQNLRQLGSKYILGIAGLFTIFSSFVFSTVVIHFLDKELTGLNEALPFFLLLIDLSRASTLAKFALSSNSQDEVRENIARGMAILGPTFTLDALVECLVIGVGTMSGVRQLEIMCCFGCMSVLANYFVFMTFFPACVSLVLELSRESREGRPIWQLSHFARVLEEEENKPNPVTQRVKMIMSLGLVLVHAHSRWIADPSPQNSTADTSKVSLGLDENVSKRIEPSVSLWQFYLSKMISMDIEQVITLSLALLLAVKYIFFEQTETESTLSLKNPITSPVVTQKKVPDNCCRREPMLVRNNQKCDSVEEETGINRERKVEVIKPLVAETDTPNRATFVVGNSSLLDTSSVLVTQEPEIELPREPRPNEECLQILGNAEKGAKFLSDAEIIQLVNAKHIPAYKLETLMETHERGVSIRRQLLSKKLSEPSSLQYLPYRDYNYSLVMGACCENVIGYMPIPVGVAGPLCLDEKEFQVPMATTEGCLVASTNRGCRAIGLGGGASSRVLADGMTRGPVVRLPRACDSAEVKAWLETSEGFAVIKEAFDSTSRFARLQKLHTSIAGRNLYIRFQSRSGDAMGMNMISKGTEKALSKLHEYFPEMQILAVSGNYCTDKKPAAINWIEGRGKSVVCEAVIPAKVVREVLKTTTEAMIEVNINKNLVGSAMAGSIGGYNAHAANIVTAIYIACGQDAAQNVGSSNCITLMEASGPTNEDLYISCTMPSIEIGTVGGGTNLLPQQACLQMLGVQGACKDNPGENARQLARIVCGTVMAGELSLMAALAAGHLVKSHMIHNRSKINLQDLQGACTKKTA
# Design: species or system Escherichia coli
Parameter Measured: IC50

{"Compound": "COc1c(C)c2c(c(O)c1C/C=C(\\C)CCC(=O)OCCN1CCOCC1)C(=O)OC2 [MYCOPHENOLATE MOFETIL]", "System Tested": "3-hydroxy-3-methylglutaryl-coenzyme A reductase (Homo sapiens)", "IC50": "Not Active"}
{"Compound": "Clc1ccccc1C(c1ccccc1)(c1ccccc1)n1ccnc1", "System Tested": "3-hydroxy-3-methylglutaryl-coenzyme A reductase (Homo sapiens)", "IC50": "Not Active"}
{"Compound": "COc1ccc2cc(CC(=O)O)ccc2c1", "System Tested": "3-hydroxy-3-methylglutaryl-coenzyme A reductase (Homo sapiens)", "IC50": "Not Active"}
{"Compound": "CC[C@H]1OC(=O)[C@H](C)[C@@H](O[C@H]2C[C@@](C)(OC)[C@@H](O)[C@H](C)O2)[C@H](C)[C@@H](O[C@@H]2O[C@H](C)C[C@H](N(C)C)[C@H]2O)[C@](C)(O)C[C@@H](C)/C(=N\\OCOCCOC)[C@H](C)[C@@H](O)[C@]1(C)O", "System Tested": "3-hydroxy-3-methylglutaryl-coenzyme A reductase (Homo sapiens)", "IC50": "Not Active"}
{"Compound": "Fc1ccc([C@@H]2CCNC[C@H]2COc2ccc3c(c2)OCO3)cc1", "System Tested": "3-hydroxy-3-methylglutaryl-coenzyme A reductase (Homo sapiens)", "IC50": "Not Active"}

Each compound below has a reported value. Please supply its IC50.
1. COc1cccc(C2(O)CCCCC2CN(C)C)c1 (stereo not drawn)
2. COS(C)(=O)=O
3. Cc1ccc(C(=O)C(C)CN2CCCCC2)cc1 (stereo not drawn)

Not Active
Not Active
Not Active
